system: Ba/F3 EGFR L858R/T790M; assay: Ba/F3 cell proliferation (MTS) assay; format: cell-based, murine; details: Mus musculus; Ba/F3, EGFR L858R/T790M; 72 hours, MTS; read-out: IC50
pIC50: −log10 of the molar value.
experimental endpoint: pIC50

C=CC(=O)Nc1cccc(Oc2nc(Nc3ccc(N4CCN(C)CC4)cc3OC)ncc2Cl)c1 :: 7.85
C=CC(=O)Nc1cc(Nc2nccc(-n3ccc4cccnc43)n2)c(OC)cc1N(C)CCN(C)C :: 6.72

* * *

system: Ba/F3 EGFR DEL/844V; assay: Ba/F3 cell proliferation (MTS) assay; format: cell-based, murine; conditions: Mus musculus, Ba/F3 EGFR, 72 h
experimental endpoint: IC50 (nM)

C=CC(=O)Nc1cc(Nc2nccc(-c3cn(C)c4ccccc34)n2)c(OC)cc1N(C)CCN(C)C :: 15.1

* * *

tested on: Ba/F3 EGFR DEL/T790M; experiment: Ba/F3 cell proliferation (MTS) assay; type: cell-based, murine; details: Mus musculus; Ba/F3, EGFR DEL/T790M; 72 hours, MTS; read-out: IC50
Recorded IC50 values for a group of molecules are listed next.
experimental endpoint: IC50 (nM)

C=CC(=O)Nc1cc(Nc2nccc(-n3ccc4cccnc43)n2)c(OC)cc1N(C)CCN(C)C :: 64.8
C=CC(=O)Nc1cccc(Oc2nc(Nc3ccc(N4CCN(C)CC4)cc3OC)ncc2Cl)c1 :: 19.2

* * *

tested on: Ba/F3 EGFR L858R/T790M/L718Q; assay: Ba/F3 cell proliferation (MTS) assay; assay type: cell-based, murine; conditions: Mus musculus, Ba/F3 EGFR, 72 h
pIC50: −log10 of the molar value.
experimental endpoint: pIC50

C=CC(=O)Nc1cc(Nc2nccc(-c3cn(C)c4ccccc34)n2)c(OC)cc1N(C)CCN(C)C :: 5.90

* * *

tested on: Ba/F3 EGFR DEL/T790M/L718Q; assay: Ba/F3 cell proliferation (MTS) assay; assay type: cell-based, murine; conditions: Mus musculus, Ba/F3 EGFR, 72 h
pIC50: −log10 of the molar value.
experimental endpoint: pIC50

C=CC(=O)Nc1cc(Nc2nccc(-c3cn(C)c4ccccc34)n2)c(OC)cc1N(C)CCN(C)C [AZD9291] :: 6.24

// data source = patent US12331037B2
